Hello, the source for this data is the Human Domainome abundance scans (Beltran et al. 2025), in case you need it.

B1: Ankyrin-1, residues 1405 to 1484; numbered along this chain, P16157 (parent)
chain: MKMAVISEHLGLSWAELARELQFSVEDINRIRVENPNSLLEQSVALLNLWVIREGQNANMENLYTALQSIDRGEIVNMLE

# Variants of: B1
# RUN_DESCRIPTION: abundance fitness (aPCA) (normalised: wild type 0, dead -1); higher = more abundant; growth selection in yeast, the domain comes from the species named
# STATED_CONDITIONS: Homo sapiens
MEASUREMENT_LABEL: abundance fitness

Query: Give its abundance fitness value. Item: "P36L"
Reply: -0.774

Query: Follow-up item: "Q42Y"
Reply: -0.864

Query: Follow-up item: "I70S"
Reply: -0.604

Query: Follow-up item: "N35E"
Reply: 0.051

Query: Follow-up item: "Q68G"
Reply: -0.152

Query: Follow-up item: "G73R"
Reply: -0.297

Query: Follow-up item: "A66M"
Reply: -0.332

Query: Follow-up item: "Q56S"
Reply: -0.097

Query: Follow-up item: "E26S"
Reply: -0.071

Query: Follow-up item: "L47A"
Reply: -0.905

Query: Follow-up item: "A66Y"
Reply: -0.494

Query: Follow-up item: "T65G"
Reply: -0.045

Query: Follow-up item: "E54N"
Reply: -0.043

Query: Follow-up item: "N57T"
Reply: -0.154

Query: Follow-up item: "G55L"
Reply: -0.871

Query: Follow-up item: "L49Q"
Reply: 0.014

Query: Follow-up item: "E80Y"
Reply: -0.048

Query: Follow-up item: "Q68Y"
Reply: -0.202

Query: Follow-up item: "E74A"
Reply: -0.364
